Where do the numbers come from? From patent US10766869B2.

Below: a set of entries, each annotated with reported fold induction at 1 µM.
Tested on: primary rat mixed cortical cells
Assay: In vitro myelination assay (MBP positive myelin strands, fold myelin pixels above background)
Type: cell-based
Conditions: Rattus norvegicus, 1.0 μM compound, relative to baseline of no added compound; read-out: Fold myelin pixels above background

Some solved entries appear below for comparison.
INSERT INTO measurements (compound, observed_measurement) VALUES
  ('CC(C)(C)N1CCN(c2cc(Nc3ncn(-c4cc(F)cc(F)c4)n3)cc(N3CCN(C(C)(C)C)CC3)c2)CC1', '1 to 10'),
  ('FC(F)(F)c1cc(Nc2ncn(-c3cnccn3)n2)cc(N2CCN(C3COC3)CC2)c1', '10 to 100');

Per the record, CCNC(=O)N1CCN(c2cc(C(F)(F)F)cc(Nc3ncn(-c4cc(F)cc(F)c4)n3)n2)CC1 has fold induction at 1 µM of 10 to 100

Per the record, Clc1cc(Nc2ncn(-c3ccccn3)n2)cc(N2CC(N3CCOCC3)C2)c1 has fold induction at 1 µM of 10 to 100

Per the record, Cc1cc(Nc2ncn(C)n2)cc(Nc2ncn(-c3ccccc3)n2)c1 has fold induction at 1 µM of 10 to 100

* * *

Tested on: primary rat mixed cortical cells
Assay: In vitro myelination assay (MBP positive myelin strands, fold myelin pixels above background)
Format: cell-based
Details: Rattus norvegicus, 10.0 μM compound, relative to baseline of no added compound; read-out: Fold myelin pixels above background, 10.0 μM
measured.attribute: fold induction at 10 µM

Some solved entries appear below for comparison.
INSERT INTO results (compound, measured_attribute, observed_measurement) VALUES
  ('FC(F)c1cc(Nc2ncn(-c3ccccc3)n2)cc(N2CCNCC2)c1', 'fold induction at 10 µM', '≤ 1'),
  ('COc1cc(F)cc(-n2cnc(Nc3cc(C)cc(N4CCN(C5COC5)CC4)c3)n2)c1', 'fold induction at 10 µM', '100 to 1000'),
  ('CCc1cc(Nc2ncn(-c3ccc(F)cc3)n2)cc(N2CCN(C3COC3)CC2)c1', 'fold induction at 10 µM', '≤ 1');

Per the record, CN1CCN(c2cc(F)cc(Nc3ncn(-c4cccc(F)c4)n3)c2)CC1 has fold induction at 10 µM of ≤ 1

Per the record, Fc1cc(Nc2ncn(-c3cccc(F)c3)n2)cc(C2CCN(C3COC3)C2)c1 (centres unmarked) has fold induction at 10 µM of ≤ 1

Per the record, CC(=O)N1CCN(c2cc(C)cc(Nc3ncn(-c4cc(F)cc(F)c4)n3)c2)CC1 has fold induction at 10 µM of 100 to 1000

Per the record, Cc1cc(Nc2ncn(-c3cnccn3)n2)cc(C2CCCN(C3COC3)C2)c1 (centres unmarked) has fold induction at 10 µM of 100 to 1000

Per the record, CCOc1nccc(-n2cnc(Nc3cc(C)cc(N4CCN(C5COC5)CC4)c3)n2)n1 has fold induction at 10 µM of ≤ 1

Per the record, Cc1cc(Nc2ncn(-c3ccccc3)n2)cc(C2CCNCC2)c1 has fold induction at 10 µM of ≤ 1

Per the record, Cc1cc(Nc2ncn(-c3ccccc3)n2)cc(C2CN(C3COC3)C2)c1 has fold induction at 10 µM of 1 to 10

Per the record, Cc1cc(Nc2ncn(-c3ccccc3)n2)cc(N2C[C@@H]3C[C@H]2CN3C2COC2)c1 has fold induction at 10 µM of 1 to 10

Per the record, Fc1cc(F)cc(-n2cnc(Nc3cc(C4CC4)nc(N4CCCCC4)c3)n2)c1 has fold induction at 10 µM of 10 to 100

* * *

Below: a set of entries, each annotated with reported fold induction at 1 µM.
Tested on: primary rat mixed cortical cells
Assay: In vitro myelination assay (MBP positive myelin strands, fold myelin pixels above background)
Format: cell-based
Conditions: Rattus norvegicus, 1.0 μM compound, relative to baseline of no added compound; read-out: Fold myelin pixels above background

INSERT INTO measurements (compound, observed_measurement) VALUES
  ('Cc1cc(Nc2ncn(-c3cc(F)cc(F)c3)n2)cc(O[C@H]2C[C@H](N3CCOCC3)C2)c1', '10 to 100'),
  ('N#Cc1cc(Nc2ncn(-c3cccnc3)n2)cc(N2CCOCC2)c1', '10 to 100'),
  ('Fc1cc(Nc2ncn(-c3cccc(F)c3)n2)cc(N2CCCC2)c1', '100 to 1000'),
  ('COCc1cc(Nc2ncn(-c3cccc(C(F)(F)F)c3)n2)nc(N2CCN(C3COC3)CC2)c1', '1 to 10');

Per the record, CCc1cc(Nc2ncn(-c3cncnc3)n2)cc(N2CCN(C3COC3)CC2)c1 has fold induction at 1 µM of 1 to 10

Per the record, COCC1CCN(c2cc(C)cc(Nc3ncn(-c4cc(F)cc(F)c4)n3)n2)CC1 has fold induction at 1 µM of 1 to 10

Per the record, CCc1cc(Nc2ncn(-c3cncnc3)n2)cc(N2CC(N3CCOCC3)C2)c1 has fold induction at 1 µM of 1 to 10

Per the record, Cc1cc(Nc2ncn(-c3cc(F)cc(F)c3)n2)cc([C@H]2CCN(C3COC3)C2)c1 (single isomer, unassigned) has fold induction at 1 µM of 100 to 1000

Per the record, Cc1cc(-n2cnc(Nc3cc(F)cc(N4CCN(C5COC5)CC4)c3)n2)ccc1F has fold induction at 1 µM of 1 to 10

Per the record, Cc1cc(Nc2ncn(-c3cc(F)cc(F)c3)n2)nc(N2CCN(C3(C)COC3)CC2)c1 has fold induction at 1 µM of ≤ 1

Per the record, Fc1cccc(-n2cnc(Nc3cc(C(F)F)cc(N4CCN(C5COC5)CC4)n3)n2)c1 has fold induction at 1 µM of 100 to 1000

Per the record, CC(C)c1cc(Nc2ncn(-c3cccc(F)c3)n2)cc(N2CCN(C3COC3)CC2)c1 has fold induction at 1 µM of 100 to 1000

Per the record, Cc1cc(Nc2ncn(-c3ccccc3)n2)nc(N2CC(N3CCOCC3)C2)c1 has fold induction at 1 µM of 1 to 10

Per the record, FC(F)c1cccc(-n2cnc(Nc3cc(C(F)F)cc(N4CC(N5CCOCC5)C4)n3)n2)c1 has fold induction at 1 µM of 1 to 10

Per the record, Cc1cc(Nc2ncn(-c3ccc(F)c(F)c3)n2)cc(OCC2CCOCC2)c1 has fold induction at 1 µM of 1 to 10

Per the record, Cc1cc(Nc2ccn(C(C)C)n2)cc(Nc2ncn(-c3ccccc3)n2)c1 has fold induction at 1 µM of 10 to 100

* * *

Test system: primary rat mixed cortical cells
Experiment: In vitro myelination assay (MBP positive myelin strands, fold myelin pixels above background)
Assay type: cell-based
Settings: Rattus norvegicus, 10.0 μM compound; read-out: Fold myelin pixels above background relative to baseline of no added compound
Below: a set of entries, each annotated with reported fold induction at 10 µM.

Some solved entries appear below for comparison.
INSERT INTO results (compound, target_under_test, measured_attribute, observed_measurement) VALUES
  ('Cc1cc(Nc2ncn(-c3ccccc3)n2)cc(N2CC3(C2)CN(C(C)C)C3)c1', 'primary rat mixed cortical cells', 'fold induction at 10 µM', '≤ 1'),
  ('CCC(CNc1cc(C)cc(Nc2ncn(-c3cc(F)cc(F)c3)n2)c1)N1CCOCC1 (stereo not shown)', 'primary rat mixed cortical cells', 'fold induction at 10 µM', '1 to 10'),
  ('CC(=O)N1CC(CNc2cc(C)cc(Nc3ncn(-c4cc(F)cc(F)c4)n3)c2)C1', 'primary rat mixed cortical cells', 'fold induction at 10 µM', '≤ 1');

Alright, here's another compound for you.
fold induction at 10 µM of COC1CCCC1Nc1cc(C)cc(Nc2ncn(-c3cc(F)cc(F)c3)n2)c1 (stereo not shown) , assay on primary rat mixed cortical cells, is 1 to 10

* * *

Below: a set of entries, each annotated with reported fold induction at 1 µM.
Test system: primary rat mixed cortical cells
Test: In vitro myelination assay (MBP positive myelin strands, fold myelin pixels above background)
Type: cell-based
Conditions: Rattus norvegicus, 1.0 μM compound, relative to baseline of no added compound; read-out: Fold myelin pixels above background
From the text: In Vitro Myelination Assay Compounds were screened for their ability to induce myelination using a primary rat mixed cortical cell culture assay, which contains neurons, oligodendrocyte precursor cells, oligodendrocytes, astrocytes and microglia. […] The myelin strands were quantitated using a custom created myelin detection software program. […]

Per the record, Cc1cc(Nc2ncn(-c3cc(F)cc(F)c3)n2)cc(OCC2CC(F)(F)C2)c1 has fold induction at 1 µM of 1 to 10

* * *

Tested on: primary rat mixed cortical cells
Test: In vitro myelination assay (MBP positive myelin strands, fold myelin pixels above background)
Format: cell-based
Settings: 1.0 μM compound
measured.attribute: Fold myelin pixels above background relative to baseline of no added compound

INSERT INTO measurements (compound, observed_measurement) VALUES
  ('Cc1cc(Nc2ncn(-c3cccc(F)c3)n2)c(F)c(OC2CCOC2)c1 (single isomer, unassigned)', '++ (>10 to 100x)'),
  ('Cc1cc(Nc2ncn(-c3ccccc3)n2)c(F)c(OC2CCOC2)c1 (single isomer, unassigned) [Compound 1052]', '++ (>10 to 100x)');
